# Test system: HCT-116
# method_notes: Antiproliferative activity against human HCT-116 cells assessed as inhibition rate incubated for 72 hrs by MTT assay
# Type: functional, cell-based
# condition_set: HCT-116, 72 h
// pIC50 lookup, one value per entry
// pIC50 is dimensionless: -log10 of concentration (M)

{"columns": ["compound", "pIC50"],
 "data": [
  ["O=C1c2ccccc2OC2c3oc4ccc(O)cc4c3CCN12 (configuration not stated)", 5.90],
  ["CN1c2ccccc2C(=O)N2CCc3c([nH]c4ccccc34)C21 (configuration not stated)", 4.49],
  ["O=C1c2cc(Cl)cc(Cl)c2OC2c3oc4ccc(O)cc4c3CCN12 (configuration not stated)", 5.22],
  ["O=C1c2cc(Br)ccc2OC2c3oc4ccc(O)cc4c3CCN12 (configuration not stated)", 5.77],
  ["Cc1cccc2c1OC1c3oc4ccc(O)cc4c3CCN1C2=O (configuration not stated)", 5.46]
]}

Request: Please report the recorded pIC50 for O=C1c2cc(Cl)ccc2OC2c3oc4ccc(O)cc4c3CCN12 (configuration not stated) .
Response: 6.12

Request: Please report the recorded pIC50 for Cc1ccc2c(c1)OC1c3oc4ccc(O)cc4c3CCN1C2=O (configuration not stated) .
Response: 5.33

###

# Test system: LoVo
# method_notes: Antiproliferative activity against human LoVo cells assessed as inhibition rate incubated for 72 hrs by MTT assay
# Assay type: functional, cell-based
// IC50 lookup, one value per entry
Lab note: write values as number then unit, every time.

{"columns": ["compound", "IC50"],
 "data": [
  ["CC[C@@]1(O)C(=O)OCc2c1cc1n(c2=O)Cc2cc3ccccc3nc2-1", "1.54 µM"]
]}

Request: Please report the recorded IC50 for O=C1c2cc(Cl)ccc2OC2c3oc4ccc(O)cc4c3CCN12 (configuration not stated) .
Response: 7.31 µM

###

# method_notes: Selectivity index, ratio of IC50 for human MCF-10A cells to IC50 for human MDA-MB-231 cells
recorded_endpoint: selectivity ratio
Number only, no unit.

Request: Please report the recorded selectivity ratio for CC[C@@]1(O)C(=O)OCc2c1cc1n(c2=O)Cc2cc3ccccc3nc2-1 .
Response: 5.2
